Target: Dihydrofolate reductase (Staphylococcus aureus, UniProt P0A017, F99Y/H31N)
Assay: Inhibition of methicillin-resistant Staphylococcus aureus DHFR F98Y/H30N double mutant
measure-name: pKi
Reminder that pKi is minus the log10 of a molar concentration.

Identify pKi associated with the compound COc1cc(-c2ccccc2)cc(C(C)C#Cc2c(C)nc(N)nc2N)c1 (stereo unspecified)
6.96

====

Experiment: Inhibition of Candida glabrata DHFR
Design: species or system Nakaseomyces glabratus
measure-name: pIC50
Reminder that pIC50 is minus the log10 of a molar concentration.

// known answers, use as guide
{"compound": "COc1cc(CC#Cc2cnc(N)nc2N)cc(OC)c1OC", "measure-name": "pIC50", "value-measured": 7.66}
{"compound": "COc1cc(-c2ccc(C)cc2)cc(C(C)C#Cc2c(C)nc(N)nc2N)c1 (stereo not drawn)", "measure-name": "pIC50", "value-measured": 9.22}

Identify pIC50 associated with the compound COc1cc(Cc2cnc(N)nc2N)cc(OC)c1OC
5.15

====

Molecular target: Dihydropteroate synthase (Bacillus anthracis)
Sequence (Q81VW8 whole entry): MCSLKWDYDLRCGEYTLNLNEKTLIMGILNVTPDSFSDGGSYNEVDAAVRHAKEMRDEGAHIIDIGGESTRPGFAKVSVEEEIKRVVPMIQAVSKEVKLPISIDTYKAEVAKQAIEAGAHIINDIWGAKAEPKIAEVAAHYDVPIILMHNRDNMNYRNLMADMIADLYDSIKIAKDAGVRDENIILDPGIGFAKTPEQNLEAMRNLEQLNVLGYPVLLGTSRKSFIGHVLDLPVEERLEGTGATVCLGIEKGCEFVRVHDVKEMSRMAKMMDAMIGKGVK
measure-name: pIC50
Reminder that pIC50 is minus the log10 of a molar concentration.

Supply pIC50 measured with Dihydropteroate synthase (Bacillus anthracis) for CC(C(=O)O)c1n[nH]c2nc(N)[nH]c(=O)c2c1=O (stereo unspecified) .
4.96

Taken from ChEMBL document CHEMBL3217444.
